STUDY_TARGET: T1, sLTβR (UniProt P36941 31-227, limits assumed)
T1 construct: Used in solution in ITC and as the analyte in SPR; also called soluble lymphotoxin beta receptor; antigen
T1 sequence (P36941 31-227 limits assumed): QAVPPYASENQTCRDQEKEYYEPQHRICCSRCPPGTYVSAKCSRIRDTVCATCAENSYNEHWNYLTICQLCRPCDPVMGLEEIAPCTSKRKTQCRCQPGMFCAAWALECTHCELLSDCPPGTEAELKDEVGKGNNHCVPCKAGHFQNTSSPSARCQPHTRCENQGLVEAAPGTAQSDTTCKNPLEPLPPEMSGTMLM
METHOD: SPR (Biacore 3000)
Parameter Kd: see the listing below.
The reply should be a number in nM, with the unit left off.

The following binders have reported results that may help.
[[record]]
binder = "BHA10 VH44:VL100/(Gly4Ser)4 scFv (scFv, Cys at Kabat VH44 and VL100 form a disulfide; also called Wild-type, (G4S)*4 linker w/ VH44/VL100 disulfide; 009 (ss)) scFv: QVQLVQSGAEVKKPGSSVKVSCKASGYTFTTYYLHWVRQAPGQCLEWMGWIYPGNVHAQYNEKFKGRVTITADKSTSTAYMELSSLRSEDTAVYYCARSWEGFPYWGQGTTVTVSSGGGGSGGGGSGGGGSGGGGSDIQMTQSPSSLSASVGDRVTITCKASQNVGINVAWYQQKPGKAPKSLISSASYRYSGVPSRFSGSGSGTDFTLTISSLQPEDFATYFCQQYDTYPFTFGCGTKVEIK"
meas_value = 3.3

[[record]]
binder = "BHA10 scFv VL-S46L, (G4S)4 linker (scFv, also called 072 VL-S46L; pIEH029) scFv: QVQLVQSGAEVKKPGSSVKVSCKASGYTFTTYYLHWVRQAPGQGLEWMGWIYPGNVHAQYNEKFKGRVTITADKSTSTAYMELSSLRSEDTAVYYCARSWEGFPYWGQGTTVTVSSGGGGSGGGGSGGGGSGGGGSDIQMTQSPSSLSASVGDRVTITCKASQNVGINVAWYQQKPGKAPKLLISSASYRYSGVPSRFSGSGSGTDFTLTISSLQPEDFATYFCQQYDTYPFTFGQGTKVEIKDDDDKSFLEQKLISEEDLNSAVDHHHHHH"
meas_value = 4

[[record]]
binder = "BHA10 scFv VH-S16E, VH-V55G, VL-S46L, (G4S)4 linker (scFv, name in Kabat numbering, Positions are Kabat numbers of the VH and VL domains; also called 087 VL-S46L + VH-S16E, V55G; pIEH087) scFv: QVQLVQSGAEVKKPGESVKVSCKASGYTFTTYYLHWVRQAPGQGLEWMGWIYPGNGHAQYNEKFKGRVTITADKSTSTAYMELSSLRSEDTAVYYCARSWEGFPYWGQGTTVTVSSGGGGSGGGGSGGGGSGGGGSDIQMTQSPSSLSASVGDRVTITCKASQNVGINVAWYQQKPGKAPKLLISSASYRYSGVPSRFSGSGSGTDFTLTISSLQPEDFATYFCQQYDTYPFTFGQGTKVEIK"
meas_value = 3.8


Alright, here's another binder for you.
Supply recorded Kd for BHA10 scFv VH-S16E, VL-S46L, (G4S)4 linker, no disulfide (scFv, name in Kabat numbering, Positions are Kabat numbers of the VH and VL domains, not of the scFv entry; also called 076 VL-S46L + VH-S16E; pIEH076) scFv: QVQLVQSGAEVKKPGESVKVSCKASGYTFTTYYLHWVRQAPGQGLEWMGWIYPGNVHAQYNEKFKGRVTITADKSTSTAYMELSSLRSEDTAVYYCARSWEGFPYWGQGTTVTVSSGGGGSGGGGSGGGGSGGGGSDIQMTQSPSSLSASVGDRVTITCKASQNVGINVAWYQQKPGKAPKLLISSASYRYSGVPSRFSGSGSGTDFTLTISSLQPEDFATYFCQQYDTYPFTFGQGTKVEIK here.
3.4
